Target: Factor X, P00742
Sequence (P00742 whole entry, looked up): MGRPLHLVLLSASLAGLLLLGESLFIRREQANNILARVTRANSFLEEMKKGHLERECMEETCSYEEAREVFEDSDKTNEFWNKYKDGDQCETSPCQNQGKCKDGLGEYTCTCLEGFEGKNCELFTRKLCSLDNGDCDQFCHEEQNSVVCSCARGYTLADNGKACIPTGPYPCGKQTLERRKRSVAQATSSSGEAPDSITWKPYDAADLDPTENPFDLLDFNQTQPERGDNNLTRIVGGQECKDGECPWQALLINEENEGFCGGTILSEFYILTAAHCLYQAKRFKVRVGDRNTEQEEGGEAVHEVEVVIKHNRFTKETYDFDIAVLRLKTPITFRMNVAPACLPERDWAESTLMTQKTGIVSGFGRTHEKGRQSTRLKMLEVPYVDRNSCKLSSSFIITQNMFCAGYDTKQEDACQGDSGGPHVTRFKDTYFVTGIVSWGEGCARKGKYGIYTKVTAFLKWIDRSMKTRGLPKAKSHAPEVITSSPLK
Endpoint: % of WT (kcat/KM) (%)
Numbers only; they are read as %.

Query: I'd like to know its % of WT (kcat/KM). The protein in question is FIXa-D203N/F205T/R318Y (protein) chain 1: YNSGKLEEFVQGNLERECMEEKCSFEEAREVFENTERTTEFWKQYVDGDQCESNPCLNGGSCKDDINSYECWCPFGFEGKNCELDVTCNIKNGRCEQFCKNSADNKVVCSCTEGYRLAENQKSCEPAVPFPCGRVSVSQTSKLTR chain 2: VVGGEDAKPGQFPWQVVLNGKVNATCGGSIVNEKWIVTAAHCVETGVKITVVAGEHNIEETEHTEQKRNVIRIIPHHNYNAAINKYNHDIALLELDEPLVLNSYVTPICIADKEYTNIFLKFGSGYVSGWGRVFHKGYSALVLQYLRVPLVDRATCLRSTKFTIYNNMFCAGFHEGGRDSCQGDSGGPHVTEVEGTSFLTGIISWGEECAMKGKYGIYTKVSRYVNWIKEKTKLT
Response: 44

Query: Next protein: FIXa-D203N/F205T/E410N (protein) chain 1: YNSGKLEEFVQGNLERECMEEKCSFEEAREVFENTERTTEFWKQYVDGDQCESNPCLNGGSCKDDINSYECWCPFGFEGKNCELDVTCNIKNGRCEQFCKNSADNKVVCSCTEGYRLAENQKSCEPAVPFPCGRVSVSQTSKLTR chain 2: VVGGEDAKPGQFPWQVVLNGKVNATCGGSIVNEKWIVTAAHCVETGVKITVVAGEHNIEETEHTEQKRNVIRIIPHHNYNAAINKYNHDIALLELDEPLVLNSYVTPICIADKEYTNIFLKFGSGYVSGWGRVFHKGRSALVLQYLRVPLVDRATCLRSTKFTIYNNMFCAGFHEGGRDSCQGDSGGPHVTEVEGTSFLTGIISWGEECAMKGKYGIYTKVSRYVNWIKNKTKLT
Response: 91
